# Experimental target: human IL-1α (human) (UniProt P01583)
# Sequence (P01583 113-271 limits assumed): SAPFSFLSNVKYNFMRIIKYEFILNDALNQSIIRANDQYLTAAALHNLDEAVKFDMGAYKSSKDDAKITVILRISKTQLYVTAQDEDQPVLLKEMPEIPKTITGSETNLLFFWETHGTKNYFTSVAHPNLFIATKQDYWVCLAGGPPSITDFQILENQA
# Test description: cell-based or functional assay
Assignment: determine reported Estimated EC50, IL-1α neutralization (MRC-5) for the given binders.
Just so you know, I need the unit written after the number.

### Prompt Sample ABT2-108-538x/ABT1-98 scFc (Fc fusion, part only; not given: Domain junction linker and Fc, not shown: a dimerising Fc or GST) chain, part: EVQLLESGGGLVQPGGSLRLSCAASGFTFADEGMMWVRQAPGKGLEWVSRITYSGKNTYYADSVKGRFTISRDNSKNTLYLQMNSLRAEDTAVYYCAKYTGRILGHHLFDYWGQGTLVTVSSEVQLLESGGGLVQPGGSLRLSCAASGFTFDGYIMSWVRQAPGKGLEWVSTISPLGSVTYYADSVKGRFTISRDNSKNTLYLQMNSLRAEDTAVYYCAKKGPWFDYWGQGTLVTVSSGGGGSGGGGSGGGGS — what was its Estimated EC50, IL-1α neutralization (MRC-5)?
### Response 3 nM

### Prompt Which Estimated EC50, IL-1α neutralization (MRC-5) reading was recorded for the binder ABT2-108-538x/ABT1-207 scFc (Fc fusion, part only; not given: Domain junction linker and Fc, not shown: a dimerising Fc or GST) chain, part: EVQLLESGGGLVQPGGSLRLSCAASGFTFADEGMMWVRQAPGKGLEWVSRITYSGKNTYYADSVKGRFTISRDNSKNTLYLQMNSLRAEDTAVYYCAKYTGRILGHHLFDYWGQGTLVTVSSEVQLLESGGGLIQPGGSLRLSCAASGFTFGRYYMSWVRQAPGKGLEWVSSIDYLGTNTYYADSVKGRFTISRDNSKNTLYLQMNSLRAEDTAVYYCAKLTRIRPPNFDYWGQGTLVTVSSGGGGSGGGGSGGGGS ?
### Response 50 nM

### Prompt Dear colleague, I am looking for the recorded Estimated EC50, IL-1α neutralization (MRC-5) of the following binder: ABT1-207/ABT2-108-538x scFc (Fc fusion, part only; not given: Domain junction linker and Fc, not shown: a dimerising Fc or GST) chain, part: EVQLLESGGGLIQPGGSLRLSCAASGFTFGRYYMSWVRQAPGKGLEWVSSIDYLGTNTYYADSVKGRFTISRDNSKNTLYLQMNSLRAEDTAVYYCAKLTRIRPPNFDYWGQGTLVTVSSEVQLLESGGGLVQPGGSLRLSCAASGFTFADEGMMWVRQAPGKGLEWVSRITYSGKNTYYADSVKGRFTISRDNSKNTLYLQMNSLRAEDTAVYYCAKYTGRILGHHLFDYWGQGTLVTVSSGGGGSGGGGSGGGGS
### Response 25 nM

### Prompt Find the recorded Estimated EC50, IL-1α neutralization (MRC-5) belonging to ABT1-98/ABT2-108-538x scFc (Fc fusion, part only; not given: Domain junction linker and Fc, not shown: a dimerising Fc or GST) chain, part: EVQLLESGGGLVQPGGSLRLSCAASGFTFDGYIMSWVRQAPGKGLEWVSTISPLGSVTYYADSVKGRFTISRDNSKNTLYLQMNSLRAEDTAVYYCAKKGPWFDYWGQGTLVTVSSEVQLLESGGGLVQPGGSLRLSCAASGFTFADEGMMWVRQAPGKGLEWVSRITYSGKNTYYADSVKGRFTISRDNSKNTLYLQMNSLRAEDTAVYYCAKYTGRILGHHLFDYWGQGTLVTVSSGGGGSGGGGSGGGGS and report it.
### Response 30 nM
